Target: FTM-NN protein (membrane anchorless form of the Long fusion protein of hRSV, 70 kDa) (human respiratory syncytial virus, …, UniProt P12568 26-524)
Assay: competition ELISA, periplasmic extract diluted 1:300, competitor 101F Fab
# % Inhibition 101F Fab (1:300 PE) per record follows
Please reply with the bare figure in % and do not write the unit itself.

Sample answers from the record:
# binder, number
rows = [
    ("PMP13A1 (VHH) VHH: EVQLVESGGGLVQPGGSLRLSCAASGLTLDYYALGWFRQAPGKEREGVSCISSADHSTTYADSVKGRFTISWDNAKNTVYLQMNSLKPEDTAVYYCAADPALGCYSGNYYPRYDYWGQGTQVTVSS", 46),
    ("PMP1B2 (VHH) VHH: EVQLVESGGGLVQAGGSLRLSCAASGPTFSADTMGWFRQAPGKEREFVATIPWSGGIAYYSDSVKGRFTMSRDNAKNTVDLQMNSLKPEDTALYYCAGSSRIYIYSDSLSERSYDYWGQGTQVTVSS", 58),
    ("PMP8B10 (VHH) VHH: EVQLVESGGGLVQAGASLRLSCAASGLAFSRYAMGWFRQAPGKERESVAAISSSGDNIYYADSVKGQFTMSRDNAKSSVYLQMINLKPEDTAVYYCAATSPLFVASDYFEASRYGYWGQGTQVTVSS", 31),
    ("PMP23E5 (VHH) VHH: EVQLMESGGGLVQAGGSLRLSCAASGGTFSSYAMGWFRQAPGEERDFVAAIGWSGNSPYYAQFVKGRFTISRDNAKNTVHLQMNSLKPEDTAVYYCAAAHNTMGSDYEGYDYWGQGTQVTVSS", 16),
    ("PMP13D1 (VHH) VHH: EVQLVESGGGLVQPGGSLRLSCATSGFTEDYYVIGWFRQAPGKEREGVSCMSSSGDSTTYADSVKGRFTISRDNAKNMVYLQMTSLKPEDTAVYYCAADFALGCYSGSYYPRYDYWGQGTQVTVSS", 52),
    ("PMP8A1 (VHH) VHH: EVQLVESGGGLVQPGGSLRVSCAASGFTFNDYIMGWFRQAPGKERMFIAAISGTGTIKYYGDLVRGRFTISRDNAKNTVYLRIDSLNPEDTAVYYCAARQDYGLGYRESHEYDYWGQGTQVTVSS", 55),
]

// query What value of % Inhibition 101F Fab (1:300 PE) has been recorded for this entry: PMP1A2 (VHH) VHH: EVQLVESGGGLVQAGGSLRLSCAASERTFSYYAMGWFRQAPGKEREFVATISRSGEWIYYKDAMKGRFTISRDNANNAVYLQMNSLQPEDTAIYYCAADSLGGFRSASDYYNTNTYAYWGQGTQVTVSS
// result 27

All values here come from patent US20200123233A1.
